Documented GI50 across a set of compounds
Tested on: HOP-92
Assay: NCI tumour cell line growth inhibition, 48 h
Activity calls are given as the source filed them. No stated cut-off is given here; in the data, active = GI50 up to about 1.1 µM and inactive = higher.

{"Compound": "OCSc1nn(CO)c(=S)s1", "GI50": "11.4 µM (inactive)"}
{"Compound": "OCCn1cnc2c(SCc3ccccc3)ncnc21", "GI50": "> 100 µM (inactive)"}
{"Compound": "FC(F)(F)c1cccc(C2SCc3nc4ccccc4n32)c1 (stereo not given)", "GI50": "2.41 µM (inactive)"}
{"Compound": "O=C(/C=C/c1ccc(-c2ccccc2[N+](=O)[O-])o1)NCc1ccc(C(=O)NCCc2ccccc2)cc1", "GI50": "> 100 µM (inactive)"}

As a next step, examine the compound that follows.
Query: Suppose we examine the compound `Cc1cc2c(cc1C)[n+]([O-])c(NCCCN(C)C)c(C#N)[n+]2[O-]` ; what GI50 value has been reported?
Result: > 100 µM (inactive)

----------
System: OVCAR-4
Test: NCI tumour cell line growth inhibition, 48 h
Active and inactive are the calls of the source. Cut-off read from the data, not from the text of the source: active = GI50 up to about 1.1 µM and inactive = higher.
Documented GI50 across a set of compounds

Recorded GI50, per entry:
{"Compound": "N#Cc1c(O)nc2[nH]nc(/N=N\\c3c(O)ccc4ccccc34)c2c1-c1ccc(Cl)cc1", "Assay result": "0.241 µM (active)"}
{"Compound": "Nc1ncnc2c1cnn2COCC(O)CO (stereo not given)", "Assay result": "> 100 µM (inactive)"}
{"Compound": "OCSc1nn(CO)c(=S)s1", "Assay result": "18.5 µM (inactive)"}
{"Compound": "O=C(CC1(O)C(=O)Nc2c(Cl)cc(Cl)cc21)c1cccc([N+](=O)[O-])c1 (stereo not given)", "Assay result": "14.4 µM (inactive)"}
{"Compound": "O=C(CC(=O)N1N=C(N(c2ccccc2)c2ccccc2)CC1c1ccccc1)Nc1ccc(Cl)cc1 (stereo not given)", "Assay result": "> 100 µM (inactive)"}

As a next step, examine the compound that follows.
Query: Suppose we examine the compound `CCOC(=O)c1cnc2cc3cccccc3n2c1=O` ; what GI50 value has been reported?
Result: > 100 µM (inactive)

----------
System: U-251
Assay: NCI tumour cell line growth inhibition, 48 h
The source made the active and inactive calls. Cut-off read from the data, not from the text of the source: active = GI50 up to about 1.1 µM and inactive = higher.
The reply should name one outcome from class 1 for active, class 0 for inactive

{"Compound": "CC(=O)Nc1ccc(-c2nc3cc(Cl)ccc3o2)cc1", "Label": "class 0"}
{"Compound": "COc1ccc(C(=O)/C=C/c2ccc(OCC#N)cc2)cc1OC", "Label": "class 0"}

Query: # lookup: test call for `O=c1[nH]c2ccc([N+](=O)[O-])c(Cl)c2c2ccccc12`
Result: class 0

Query: Please answer likewise for COC(=O)CCC(NC(=S)N/N=C/c1cccs1)C(=O)OC (stereo unspecified)
Result: class 0

Query: Please answer likewise for `CC1(C)[C@H]2Cc3cc4nc5ccccn5c4cc3[C@@H]1C2`
Result: class 0

----------
Tested on: DU-145
Assay: NCI tumour cell line growth inhibition, 48 h
Calls of active or inactive are those of the source. Rule as the data show it: active = GI50 up to about 1.1 µM and inactive = higher.
Documented GI50 across a set of compounds

{"Compound": "Cc1ccc2c(n1)C(=O)c1cc(C)c(C)cc1C2=O", "Assayed system": "DU-145", "GI50": "> 100 µM (inactive)"}
{"Compound": "c1ccc(CN2CCC(Nc3ccccc3)(c3nnnn3Cc3ccccc3)CC2)cc1", "Assayed system": "DU-145", "GI50": "38.4 µM (inactive)"}
{"Compound": "CCCCCCCCCCCCCC[C@@H](O)[C@H]1CC[C@H]([C@H]2CC[C@H]([C@H](O)CCCCCC[C@@H](O)CC3=C[C@H](C)OC3=O)O2)O1", "Assayed system": "DU-145", "GI50": "4.24 µM (inactive)"}
{"Compound": "COCC12CCC(OC)C34C5CC6(O)C(OC)C=C(C5C6OC(=O)c5ccccc5)C(C(OC)C13)C4N(C)C2 (configuration not stated)", "Assayed system": "DU-145", "GI50": "> 100 µM (inactive)"}
{"Compound": "O=[N+]([O-])c1cccc2nnccc12", "Assayed system": "DU-145", "GI50": "38.7 µM (inactive)"}

As a next step, examine the compound that follows.
Query: Request - read-out GI50 | tested on DU-145 | compound `CC(=O)Oc1ccc2c(C)cc(=O)oc2c1`
Result: > 100 µM (inactive)

----------
Test system: HT-29
Assay: NCI tumour cell line growth inhibition, 48 h
Calls of active or inactive are those of the source. Rule as the data show it: active = GI50 up to about 1.1 µM and inactive = higher.
Documented GI50 across a set of compounds

Recorded GI50, per entry:
{"Compound": "CCOc1ccc(/N=N/C2C(=O)N(C(=O)CC(=O)Nc3ccccc3OC)N=C2C)cc1 (configuration not stated)", "Quantity kind": "GI50", "Assay result": "4.13 µM (inactive)"}
{"Compound": "O=C1NC(=O)C(C(c2ccc([N+](=O)[O-])cc2)C2C(=O)NC(=O)NC2=O)C(=O)N1", "Quantity kind": "GI50", "Assay result": "> 100 µM (inactive)"}
{"Compound": "N#CCCC1(CCC#N)S(=O)(=O)OCCOS1(=O)=O", "Quantity kind": "GI50", "Assay result": "45.9 µM (inactive)"}
{"Compound": "CN(C)/C=[N+]1/[C@@H](Cc2ccccc2)C(=O)O[B-]1(F)c1ccccc1 (some centres not stated)", "Quantity kind": "GI50", "Assay result": "> 100 µM (inactive)"}
{"Compound": "CCOC(=O)c1c(N)n(-c2ccccc2)c(=O)n(-c2ccccc2)c1=O", "Quantity kind": "GI50", "Assay result": "> 100 µM (inactive)"}
{"Compound": "CC1(CO)COC(C)(C)OC1", "Quantity kind": "GI50", "Assay result": "> 100 µM (inactive)"}
{"Compound": "O=C(CC(=O)N1N=C(N(c2ccccc2)c2ccccc2)CC1c1ccccc1)Nc1ccc(Cl)cc1 (configuration not stated)", "Quantity kind": "GI50", "Assay result": "> 100 µM (inactive)"}
{"Compound": "CC12CC3CC/C(=N\\O)C(C1)C3(N1CCOCC1)C/C2=N/O (configuration not stated)", "Quantity kind": "GI50", "Assay result": "> 100 µM (inactive)"}

Query: Suppose we examine the compound COC(=O)C1=C(O)C(C(=O)OC)[C@]2(O)[C@H](C(=O)OC)[C@H]1C[C@@H](c1ccc(F)cc1)[C@H]2C(=O)OC (some centres not stated) ; what GI50 value has been reported?
Result: 16.6 µM (inactive)

----------
System: PC-3
Test: NCI tumour cell line growth inhibition, 48 h
Active and inactive are the calls of the source. Rule as the data show it: active = GI50 up to about 1.1 µM and inactive = higher.
Quantity kind: GI50

Recorded GI50, per entry:
{"Molecule": "N#Cc1c(N)oc(-c2cccc([N+](=O)[O-])c2)c1C#N", "Assayed system": "PC-3", "GI50": "62.8 µM (inactive)"}
{"Molecule": "COc1cc(OC)c(C2(c3c(OC(C)C)c(=O)c3=O)SCCCS2)cc1OC", "Assayed system": "PC-3", "GI50": "> 100 µM (inactive)"}
{"Molecule": "COc1cc2c3c(cc(Cl)nc3c1OC)C(O)(CC(=O)c1ccccc1)C(=O)N2 (stereo not given)", "Assayed system": "PC-3", "GI50": "15.3 µM (inactive)"}
{"Molecule": "COC(C/C(=C/CO[Si](C(C)C)(C(C)C)C(C)C)C(=O)Nc1ccccc1I)OC", "Assayed system": "PC-3", "GI50": "18.9 µM (inactive)"}

Query: Suppose we examine the molecule `C[C@H]1CC(=O)[C@@]2(O)C#C/C=C\C#C[C@@H]3Nc4c(cc(O)c5c4C(=O)c4ccccc4C5=O)[C@]24O[C@]314` ; what GI50 value has been reported?
Result: 0.259 µM (active)

----------
Test system: Malme-3M
Assay: NCI tumour cell line growth inhibition, 48 h
Activity calls are given as the source filed them. No stated cut-off is given here; in the data, active = GI50 up to about 1.1 µM and inactive = higher.
The reply should name one outcome from T (active), F (inactive)

Query: # lookup: test call for `O=C(O)c1cc(C(=O)O)cc(N2C(=O)c3ccccc3C2=O)c1`
Result: F

Query: Please answer likewise for `O=C1OC[C@@H]2Cc3cc4c(cc3[C@H](c3ccc5c(c3)OCO5)[C@@H]12)OCO4`
Result: F

Query: Please answer likewise for `C1=Cc2nc1c(-c1ccccc1)c1ccc([n-]1)c(-c1ccccc1)c1nc(c(-c3ccccc3)c3ccc([n-]3)c2-c2ccccc2)C=C1.[Zn+2]`
Result: F

Query: Please answer likewise for CC1CCC2(OC1)OC1CC3C4CC=C5CC(OC6OC(CO)C(OC7OC(C)C(OC8OC(C)C(O)C(O)C8O)C(O)C7O)C(O)C6OC6OC(C)C(O)C(O)C6O)CCC5(C)C4CCC3(C)C1C2C (centres undefined)
Result: T

Query: Please answer likewise for `COc1cccc(/N=N/C(=N/NC(=O)c2cc(Cl)ccc2O)c2ccc(N(CCC#N)CCC#N)cc2C)c1`
Result: F

Query: Please answer likewise for `O=[N+]([O-])c1cccc2nnccc12`
Result: F

Query: Please answer likewise for `Cc1c(-c2c(C)c3ccccc3n2S(=O)(=O)c2ccccc2)n(S(=O)(=O)c2ccccc2)c2ccccc12`
Result: T

Query: Please answer likewise for `COc1cc(-c2nc(N)c(C#N)c3c2CCS(=O)(=O)c2ccc(C)cc2-3)cc(OC)c1OC`
Result: F

Query: Please answer likewise for O=C(O)CCC1c2[nH]c3ccccc3c2CCN1Cc1ccccc1 (centres undefined)
Result: F

Query: Please answer likewise for COc1cc(C(O)C(=O)c2cnc3cc([N+](=O)[O-])ccc3n2)ccc1O (centres undefined)
Result: F

Each recorded value in this set is attributed to ChEMBL document CHEMBL1201862.
